experiment: chemical genetic growth profiling, strain panel (AID 1159580);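 also: tested at 20 µM; growth read once vehicle control cultures reached saturation at 30 °C; 1 = growth at the plate median or of vehicle wells; lower values mean less growth of the strain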; conditions: S. cerevisiae deletion strains, growth OD, locus YML032C, strain rad52, stronger effect = lower value
Hit rate of the full screen: of about 5,500 compounds, about 2,000 (36%) were called active. Not shown: some 18% with an inconclusive outcome. The list shows a part of the results.

Compound | normalized growth
CC(=O)C1CCC2C3CC(=O)C4=CC(=O)CCC4(C)C3CCC12C (configuration not stated) | 1.01
COc1ccc2c3c1O[C@H]1C[C@@H](O)C=C[C@@]31CCN(C)C2 | 1.04
CC1(C)OC(=O)NC1=O | 0.98
COc1cc2c(cc1OC)C1C(=O)c3c(O)cc4c(c3OC1CO2)C=CC(C)(C)O4 (configuration not stated) | 1.02
ClC1=C(Cl)C2(Cl)C3C(Cl)C=CC3C1(Cl)C2(Cl)Cl (configuration not stated) | 0.968
COc1ccc2c(c1OC)C(=O)O[C@H]2[C@H]1c2cc3c(cc2CCN1C)OCO3 | 1.01
COc1cc2c(cc1OC)C1C(=O)c3c(OC)cc4c(c3OC1CO2)CCC(C)(C)O4 (configuration not stated) | 0.966
COc1ccc2c(c1OC)C(=O)O[C@@H]2[C@H]1c2cc3c(cc2CCN1C)OCO3 | 1.03
C[C@]12CC(=O)C3C(CC[C@@H]4C[C@H](O)CC[C@]34C)C1CC[C@]2(O)C(=O)CO (some centres not stated) | 1.04
COc1cc(NC(C)CCCN)c2ncccc2c1 (configuration not stated) | 1.01
COc1ccc2c(c1)OCc1c-2oc2cc(OC)ccc12 | 0.959
O=C(O)C1(O)C[C@@H](O)C(O)[C@H](O)C1 (some centres not stated) | 0.989
